molecular target: human QC (Homo sapiens); test: Inhibition of the human QC (glutaminyl cyclase) catalyzed reaction, Ki determination; conditions: read-out: Ki-value; human QC catalyzed reaction; 30° C. in 0.05 M Tris-HCl pH 8.0, containing 5 mM EDTA
Listed compounds paired with reported Ki
Answer in µM, number only, no unit symbol.

*Q* Look up Ki with human QC (Homo sapiens) for this compound: O=Cc1c[nH]cn1 [4-imidazole-carboxaldehyde]
*A* 7600

*Q* Look up Ki with human QC (Homo sapiens) for this compound: N[C@H](CO)Cc1c[nH]cn1 [L-histidinol]
*A* 1530

*Q* Look up Ki with human QC (Homo sapiens) for this compound: CC(=O)n1ccnc1 [N-acetylimidazole]
*A* 107

*Q* Look up Ki with human QC (Homo sapiens) for this compound: NCCc1c[nH]cn1 [L-histamine]
*A* 850

*Q* Look up Ki with human QC (Homo sapiens) for this compound: O=C(Cn1ccnc1)c1ccccc1 [1-(2-oxo-2-phenyl-ethyl)-imidazole]
*A* 184

*Q* Look up Ki with human QC (Homo sapiens) for this compound: NCCCn1ccnc1 [1-(3-aminopropyl)-imidazole]
*A* 410

---

molecular target: human QC (Homo sapiens, UniProt Q16769); experiment: Inhibition of the human QC (glutaminyl cyclase) catalyzed reaction, Ki determination
Sequence (Q16769 29-361): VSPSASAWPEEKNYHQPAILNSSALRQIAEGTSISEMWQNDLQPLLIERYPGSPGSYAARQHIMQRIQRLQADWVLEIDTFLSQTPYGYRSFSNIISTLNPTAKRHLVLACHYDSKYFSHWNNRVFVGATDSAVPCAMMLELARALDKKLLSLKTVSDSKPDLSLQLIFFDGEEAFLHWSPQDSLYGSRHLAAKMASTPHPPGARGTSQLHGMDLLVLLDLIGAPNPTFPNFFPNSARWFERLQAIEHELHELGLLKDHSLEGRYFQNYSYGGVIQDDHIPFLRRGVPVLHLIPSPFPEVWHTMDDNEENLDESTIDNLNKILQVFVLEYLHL
REPORTED_METRIC: pKi
Schema: pKi number; meaning minus log10 of the concentration expressed in molar units.

These recorded examples may help you get a feel for the data.
>>> reported_value("COC(=O)[C@H](C)NC(=O)C1CCC(Cn2ccnc2)N1 (some centres unmarked)")
4.49
>>> reported_value("O=C(C(=O)n1ccnc1)n1ccnc1 [oxalic acid dilmidazolidide]")
4.11
>>> reported_value("Cc1c(C(=O)CCn2ccnc2)sc2ccccc12")
5.60
>>> reported_value("S=C(NCCn1ccnc1)Nc1ccc(Cl)cc1")
5.78
>>> reported_value("COC(=O)[C@@H](NC(=O)[C@@H](N)CCC(=O)Nn1ccnc1)C(C)C")
3.79
>>> reported_value("O=C(Nc1ccccc1C(=O)NCCCn1ccnc1)c1ccc([N+](=O)[O-])o1")
5.18
>>> reported_value("CCCC1C(=O)OCC1Cc1cncn1C (centres unmarked)")
5.17
>>> reported_value("c1ccn2cncc2c1 [Imidazo[1.5a]pyridine]")
4.45
>>> reported_value("O=C(O)c1ccc(OCCn2ccnc2)cc1")
5.47
>>> reported_value("O=C1CNC(=S)N1CCCn1ccnc1")
6.39

Okay, now this compound:
*Q* Look up pKi with human QC (Homo sapiens, UniProt Q16769) for this compound: Cn1ccnc1
*A* 4.52

---

Listed compounds paired with reported Ki
target: human QC (Homo sapiens); experiment: Inhibition of the human QC (glutaminyl cyclase) catalyzed reaction, Ki determination; details: read-out: Ki value; QC inhibition by L-histamine and its two biological metabolites (Table 4)
Answer in µM, number only, no unit symbol.

>>> reported_value("Cn1cncc1CCN")
120

Okay, now this compound:
*Q* What does the data say about its Ki? Entry: NCCc1c[nH]cn1
*A* 850

---

target: human QC (Homo sapiens, UniProt Q16769); test: Inhibition of the human QC (glutaminyl cyclase) catalyzed reaction, Ki determination; conditions: read-out: Ki-value; human QC catalyzed reaction; 30° C. in 0.05 M Tris-HCl pH 8.0, containing 5 mM EDTA
REPORTED_METRIC: Ki (µM)
Answer in µM, number only, no unit symbol.

These recorded examples may help you get a feel for the data.
>>> reported_value("N[C@@H](Cc1c[nH]cn1)C(=O)O")
4400
>>> reported_value("COC(=O)c1c[nH]cn1")
14500
>>> reported_value("NC(=O)c1[nH]cnc1N [4-amino-imidazole-5-carbonic acid amide]")
15500
>>> reported_value("CCc1nc(C)c[nH]1")
580
>>> reported_value("NC(=O)[C@@H](N)Cc1c[nH]cn1 [L-histidinamide]")
560
>>> reported_value("C[Si](C)(C)n1ccnc1")
167
>>> reported_value("Cc1nc[nH]c1CO [5-hydroxymethyl-4-methyl-imidazole]")
129
>>> reported_value("O=C(c1ccccc1)n1ccnc1")
174

*Q* What does the data say about its Ki? Entry: Nc1nc2ccccc2[nH]1
*A* 1800

*Q* What does the data say about its Ki? Entry: C=Cn1ccnc1
*A* 49
